These entries and their values trace back to patent US20260092093A1.

SYSTEM: T1, recombinant hIL-18Rα extracellular domain (human, UniProt Q13478 22-329, biotin label (selection) or fluorescent probe (single-clone FACS), sites not given)
T1 construct: extracellular domain; also called hIL-18Rα ECD; hIL-18Rα-ECD
T1 sequence (looked up): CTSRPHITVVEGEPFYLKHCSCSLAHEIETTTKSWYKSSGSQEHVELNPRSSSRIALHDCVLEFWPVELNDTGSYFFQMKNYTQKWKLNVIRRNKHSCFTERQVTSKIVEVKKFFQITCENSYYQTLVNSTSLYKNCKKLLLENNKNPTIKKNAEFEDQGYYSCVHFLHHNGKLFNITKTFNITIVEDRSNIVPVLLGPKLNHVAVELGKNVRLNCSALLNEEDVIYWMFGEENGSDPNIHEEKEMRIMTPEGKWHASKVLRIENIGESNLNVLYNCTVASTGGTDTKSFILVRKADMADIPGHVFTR
MEASUREMENT_NOTES: single-clone FACS, yeast display, 10 nM labelled hIL-18Rα ECD
READOUT_NAME: % of fluorescence positive cells

binder="SEQ ID NO 96 (ligand) YFPKLHSKLSVIRNLNDQVLFIDQGNRPLFEDMTDSDCRDNAPRTIFIISMYKRSTLRGMAVTISVKCEKISTLSCENKIISFKEMNPPDGIKDTKSDIIFFQRSVPGHDNKMQFESSSYEGYFLACEKERDLFKLILKKEDELGDRSIMFTVQNED" readout_name="% of fluorescence positive cells" experimental_result=2.79%
binder="SEQ ID NO 70 (ligand) YFPKLRSKLSVIRNLNDQVLFIDQGNRPLFEDMTDSDCRDNAPRTIFIISMYKWSGGRGMAVTISVKCEKISTLSCENKIISFKEMNPPDAIKDTKSDIIFFQLSVPGHDNKMQFESSSYEGYFLACEKERDLFKLILKKEDELGDRSIMFTVQNED" readout_name="% of fluorescence positive cells" experimental_result=51.3%
binder="SEQ ID NO 100 (ligand) YFSKLPSKLSVIRNLNDQVLFIDQGNRPLFEDMTDSDCRDNAPRTIFIISMYKYSTWRGMAVTISVKCEKISTLSCENKIISFKEMNPPDFIKDTKSDIIFFQSSVPGHDNKMQFESSSYEGYFLACEKERDLFKLILKKEDELGDRSIMFTVQNED" readout_name="% of fluorescence positive cells" experimental_result=2.16%
binder="IL-18 variant polypeptide M3 (ligand) YFPKLKSKLSVIRNLNDQVLFIDQGNRPLFEDMTDSDCRDNAPRTIFIISMYKWSHVRGMAVTISVKCEKISTLSCENKIISFKEMNPPDAIKDTKSDIIFFQYSVPGHDNKMQFESSSYEGYFLACEKERDLFKLILKKEDELGDRSIMFTVQNED" readout_name="% of fluorescence positive cells" experimental_result=93.3%
binder="SEQ ID NO 78 (ligand) YFKKLPSKLSVIHNLNDQVLFIDQGNRPLFEDMTDSDCRDNAPRTIFIISMYKLSSERGMAVTISVKCEKISTLSCENKIISFKEMNPPDNIKDTKSDIIFFQRSVPGHDNKMQFESSSYEGYFLACEKERDLFKLILKKEDELGDRSIMFTVQNED" readout_name="% of fluorescence positive cells" experimental_result=27.8%
binder="IL-18 variant polypeptide M35 (ligand) YFPKLRSKLSVIRNLNDQVLFIDQGNRPLFEDMTDSDCRDNAPRTIFIISMYKGSGARGMAVTISVKCEKISTLSCENKIISFKEMNPPDGIKDTKSDIIFFQRSVPGHDNKMQFESSSYEGYFLACEKERDLFKLILKKEDELGDRSIMFTVQNED" readout_name="% of fluorescence positive cells" experimental_result=92.9%
binder="SEQ ID NO 98 (ligand) YFPKLTSKLSVIRNLNDQVLFIDQGNRPLFEDMTDSDCRDNAPRTIFIISMYKYSTRRGMAVTISVKCEKISTLSCENKIISFKEMNPPDNIKDTKSDIIFFQRSVPGHDNKMQFESSSYEGYFLACEKERDLFKLILKKEDELGDRSIMFTVQNED" readout_name="% of fluorescence positive cells" experimental_result=2.36%
